Measured pEC50 accompanies every entry in the list below.
- TARGET: APJ Receptor (Homo sapiens)
- Sequence (P35414 1-380): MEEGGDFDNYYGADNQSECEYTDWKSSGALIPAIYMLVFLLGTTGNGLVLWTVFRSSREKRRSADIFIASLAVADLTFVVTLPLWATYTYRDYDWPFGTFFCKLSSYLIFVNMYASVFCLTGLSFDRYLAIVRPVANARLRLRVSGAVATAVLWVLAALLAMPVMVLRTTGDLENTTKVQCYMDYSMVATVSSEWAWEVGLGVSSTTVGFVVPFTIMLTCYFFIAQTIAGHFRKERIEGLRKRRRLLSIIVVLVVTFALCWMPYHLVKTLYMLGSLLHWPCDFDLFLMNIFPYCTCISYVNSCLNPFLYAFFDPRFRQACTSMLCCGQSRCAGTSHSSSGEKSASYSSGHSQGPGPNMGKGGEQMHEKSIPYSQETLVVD
- EXPERIMENTAL PROTOCOL: APJ cAMP assay (DiscoverX enzyme fragment complementation; inhibition of forskolin-stimulated cAMP)
- TEST PARAMETERS: CHO-K1 cell line stably expressing the APJ Receptor; EC80 forskolin; 30 minutes at 37° C.; read-out: Potency Range (APJ cAMP EC50)
pEC50: −log10 of the molar value.

Some entries whose results are on file:
>  <COMPOUND SMILES>
CCOc1cccc(-c2nc3ncc(NS(=O)(=O)CC4CCNCC4)nc3n2-c2c(OC)cccc2OC)n1

>  <pEC50>
7.00 to 9.00

$$$$
>  <COMPOUND SMILES>
COc1cccc(OC)c1-n1c(-c2ccc(C)o2)nc2ncc(NS(C)(=O)=O)nc21

>  <pEC50>
7.00 to 9.00

$$$$
>  <COMPOUND SMILES>
COc1cccc(OC)c1-n1c(-c2cccc(OC3CC3)n2)nc2ncc(NS(C)(=O)=O)nc21

>  <pEC50>
7.00 to 9.00

$$$$

# next molecule below
Task: Find pEC50 (APJ Receptor (Homo sapiens)) for the entry `COc1cccc(OC)c1-n1c(-c2ccc(C)o2)nc2nnc(NS(C)(=O)=O)cc21`
Result: 5.00 to 7.00

// provenance: patent US11944622B2
